# Test system: SK-MEL-2 melanoma
# test method notes: NCI tumour cell line growth inhibition, 48 h

{"compound": "NCCNc1cccc2ccccc12", "censor symbol": ">", "TGI (µM)": 100}
{"compound": "COc1cc(/C=C2\\CN(C)C/C(=C\\c3cc(CN4CCCCC4)c(O)c(OC)c3)C2=O)cc(CN2CCCCC2)c1O", "censor symbol": "=", "TGI (µM)": 13.2}
{"compound": "CO[C@@H]1CC(=O)C2(CC(=O)O[C@@H]2/C=C(\\C)CCC=C(C)C)C[C@@H]1O (some centres undefined)", "censor symbol": "=", "TGI (µM)": 4.88}
{"compound": "O=c1cc(N2CCCC2)[nH]c(=O)n1-c1cccc(C(F)(F)F)c1", "censor symbol": ">", "TGI (µM)": 100}
{"compound": "COc1ccc(/C(=N/Nc2ccccc2)C(c2ccc(OC)cc2)C2OC(=O)c3ccccc32)cc1 (centres undefined)", "censor symbol": ">", "TGI (µM)": 100}
{"compound": "COc1cc(CC2c3cc(OC)c(OC)cc3CCN2C)c(Oc2cc3c(cc2OC)-c2c(O)c(OC)cc4c2C(C3)N(C)CC4)cc1OC (centres undefined)", "censor symbol": "=", "TGI (µM)": 58.5}
{"compound": "CN(C)C(=O)c1cc2cnc(Nc3ccc(-c4csc5c(=O)cc(N6CCOCC6)oc45)cc3)nc2n1C1CCCC1", "censor symbol": "=", "TGI (µM)": 0.679}
{"compound": "C=CCC(N[C@H](CO)c1ccccc1)c1cn(C(=O)OCC)c2ccccc12 (some centres undefined)", "censor symbol": "=", "TGI (µM)": 42}
{"compound": "COc1ccc(N=N/C(=N/NC(=O)c2ccccc2)c2ccc(N(CCC#N)CCC#N)cc2C)cc1", "censor symbol": ">", "TGI (µM)": 100}
